Catalogue of half-life values
- Assay remarks: Metabolic stability in human liver microsomes assessed as half life
- Type: ADME, Microsome

| Smiles input | Limit operator | half-life / h |
| --- | --- | --- |
| CCS(=O)(=O)NCc1ccc(Nc2ncc(C)c(-c3cnn(C(C)C)c3)n2)cc1 | > | 2 |
| Cc1cnc(Nc2ccc3c(c2)CCN(C(=O)/C=C/CN(C)C)C3)nc1-c1cnn(C(C)C)c1 | = | 0.91 |
| Cc1cnc(Nc2ccc(CNC(=O)CCCN(C)C)cc2)nc1-c1cnn(C(C)C)c1 | = | 1.27 |
| Cc1cnc(Nc2ccc(CNC(=O)CCl)cc2)nc1-c1cnn(C(C)C)c1 | = | 0.72 |
| C=CC(=O)NCc1ccc(Nc2ncc(C)c(-c3cnn(C(C)C)c3)n2)cc1 | = | 1.79 |

----------
Catalogue of half-life values
- Assay remarks: Metabolic stability in human liver microsomes assessed as half life
- Type: ADME, Microsome

| Smiles input | Limit operator | half-life (min) |
| --- | --- | --- |
| Cc1cnc(Nc2ccc(CNC(=O)/C=C/CN(C)C)cc2)nc1-c1cnn(C(C)C)c1 | = | 65.4 |
| Cc1cnc(Nc2ccc(CCNC(=O)/C=C/C(=O)c3ccccc3)cc2)nc1-c1cnn(C(C)C)c1 | = | 34.2 |
| Cc1cnc(Nc2ccc(CNC(=O)C3CC3)cc2)nc1-c1cnn(C(C)C)c1 | > | 120 |
| Cc1cnc(Nc2ccc(CCNC(=O)CCl)cc2)nc1-c1cnn(C(C)C)c1 | = | 29.6 |
| Cc1cnc(Nc2ccc(CNC(=O)CCCl)cc2)nc1-c1cnn(C(C)C)c1 | = | 44.5 |

----------
Catalogue of IC50 values
- Subject of test: Receptor-type tyrosine-protein kinase FLT3 (Homo sapiens, UniProt P36888)
- Sequence (P36888 whole entry): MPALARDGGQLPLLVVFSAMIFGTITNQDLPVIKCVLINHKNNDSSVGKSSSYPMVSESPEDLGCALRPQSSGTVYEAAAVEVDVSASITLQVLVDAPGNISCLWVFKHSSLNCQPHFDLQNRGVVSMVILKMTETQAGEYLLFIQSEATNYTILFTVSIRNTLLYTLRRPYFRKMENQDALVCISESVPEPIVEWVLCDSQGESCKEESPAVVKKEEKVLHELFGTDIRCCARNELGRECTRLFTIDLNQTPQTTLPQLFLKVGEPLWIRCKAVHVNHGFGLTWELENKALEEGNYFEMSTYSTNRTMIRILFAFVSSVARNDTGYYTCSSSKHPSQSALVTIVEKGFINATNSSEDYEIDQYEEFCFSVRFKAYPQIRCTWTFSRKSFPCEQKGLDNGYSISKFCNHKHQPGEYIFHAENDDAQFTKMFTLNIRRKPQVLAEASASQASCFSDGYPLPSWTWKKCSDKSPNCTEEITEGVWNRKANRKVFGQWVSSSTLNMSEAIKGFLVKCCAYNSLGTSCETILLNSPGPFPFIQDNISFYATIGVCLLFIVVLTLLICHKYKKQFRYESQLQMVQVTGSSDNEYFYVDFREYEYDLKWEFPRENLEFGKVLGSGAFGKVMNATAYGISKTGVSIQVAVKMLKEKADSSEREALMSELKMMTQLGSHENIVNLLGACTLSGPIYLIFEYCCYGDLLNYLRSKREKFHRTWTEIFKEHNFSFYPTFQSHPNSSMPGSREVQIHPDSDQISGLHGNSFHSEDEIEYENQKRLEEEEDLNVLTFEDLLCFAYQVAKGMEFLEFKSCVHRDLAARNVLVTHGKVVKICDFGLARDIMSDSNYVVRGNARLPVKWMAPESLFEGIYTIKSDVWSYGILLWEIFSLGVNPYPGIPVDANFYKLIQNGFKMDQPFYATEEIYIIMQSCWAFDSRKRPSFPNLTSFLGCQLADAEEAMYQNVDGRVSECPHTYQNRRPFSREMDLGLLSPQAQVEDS
- Assay remarks: Inhibition of FLT3 in human MOLM-13 cells
- Format: cell-based

| Smiles input | Limit operator | IC50 / µM |
| --- | --- | --- |
| Cc1cnc(Nc2ccc(CNS(=O)(=O)C3CC3)cc2)nc1-c1cnn(C(C)C)c1 | = | 1.25 |
| Cc1cnc(Nc2ccc(CNC(=O)CCCN(C)C)cc2)nc1-c1cnn(C(C)C)c1 | = | 5.84 |
| Cc1cnc(Nc2ccc(CCNC(=O)/C=C/C(=O)c3ccccc3)cc2)nc1-c1cnn(C(C)C)c1 | = | 0.882 |
| Cc1cnc(Nc2ccc(CNC(=O)C3CC3)cc2)nc1-c1cnn(C(C)C)c1 | = | 1.28 |
| Cc1cnc(Nc2ccc(CNC(=O)CCl)cc2)nc1-c1cnn(C(C)C)c1 | = | 0.961 |
| C=CS(=O)(=O)NCCc1ccc(Nc2ncc(C)c(-c3cnn(C(C)C)c3)n2)cc1 | = | 1.8 |
| Cc1cnc(Nc2ccc(CNC(=O)/C=C/CN(C)C)cc2)nc1-c1cnn(C(C)C)c1 | = | 0.826 |
| Cc1cnc(Nc2ccc(CCNC(=O)CCCl)cc2)nc1-c1cnn(C(C)C)c1 | > | 10 |
| C=CS(=O)(=O)NCc1ccc(Nc2ncc(C)c(-c3cnn(C(C)C)c3)n2)cc1 | = | 0.583 |
